Target: T1, human CHI3L1 extracellular domain fused with flag and His tag recombinant protein (human, UniProt P36222 22-383)
T1 construct: extracellular domain; also called hCHI3L1/flag-His; hCHI3L1; not shown: flag and His tag
T1 sequence (P36222 22-383 limits assumed): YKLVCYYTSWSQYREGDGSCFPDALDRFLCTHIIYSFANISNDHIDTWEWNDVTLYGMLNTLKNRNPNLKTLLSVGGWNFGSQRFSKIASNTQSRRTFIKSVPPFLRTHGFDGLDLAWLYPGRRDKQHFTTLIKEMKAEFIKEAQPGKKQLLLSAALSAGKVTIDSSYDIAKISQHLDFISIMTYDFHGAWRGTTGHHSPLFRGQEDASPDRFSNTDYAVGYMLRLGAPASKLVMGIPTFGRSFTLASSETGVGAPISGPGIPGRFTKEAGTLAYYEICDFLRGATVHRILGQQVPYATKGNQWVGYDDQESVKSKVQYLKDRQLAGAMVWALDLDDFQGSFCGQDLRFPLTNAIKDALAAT
Test: BLI (ForteBio Octet), mAb captured on AHC sensor, hCHI3L1/flag-His as analyte
Outcome Measure: pKd
// scale note: pKd = -log10(conc_M); give the bare number

Value of measured pKd for the entry anti-CHI3L1 clone R4-54 (antibody, human IgG1, V domains shown, also called #hu R4-54; mAb clone R4-54) VH: QVQLVESGGGVVQPGRSLRLSCAASGFTFSSYGMHWVRQAPGKGLEWVAVISYDGSDKDYADSVKGRFTISRDNSKNTLFLQMNSLRAEDTAVYYCARDDYDSTYYFDNWGQGTTVTVSS VL: SYELTQPPSVSVSPGQTASITCSGDILADQYASWYQQKPGQSPVLVIYHDTKRPSGVPERFSGSTSGNTATLTISGTQAMDEAAYYCQAWDINTAWVFGGGTQLTVLG : 8.37

Value of measured pKd for the entry anti-CHI3L1 clone R4-4 (antibody, V domains shown, also called #hu R4-4; mAb clone R4-4) VH: EVQLLESGGGLLQPGGSLRLSCAASGLTFRNYAMTWVRQAPGKGLEWVSTISGNGDETFYADSVKGHFTISRDNSKDTVYLQMNSLRAEDTAVYYCAKGGHYSFFDSWGQGSPVTVSS VL: NFMLTQPHSVSESPGKTVTISCTRSSGSIASNYVQWYQQRPGSSPTTVIYEDNQRPSGVPDRFSGSIDSSSNSASLTISGLKTEDEADYYCQSYDSSNYVFGTGTKVTVLG : 8.95

Value of measured pKd for the entry anti-CHI3L1 clone 293R3-2 (antibody, human IgG1, V domains shown, also called #hu 293R3-2; CHI3L1 293R3-2) VH: QVQLQESGPGLVEPSGTLSLTCAVSGGSISSSNWWSWVRQHPGKGLEWIGEIYHSGSTNYNPSLRSRVTISVDKSKNQFSLELSSVTAADTAVYYCAGDQRMEDDAFDIWGQGTMVTVSS VL: QSALTQPASVSGSPGQSITISCTGTSSDVGGYNYVSWYQQHPGKAPKLMIYDVSNRPSGVSNRFSGSKSGNTASLTISGLQAEDEADYYCSSYTSSSTLYVFGTGTKVTVLG : 8.55

Value of measured pKd for the entry anti-CHI3L1 clone 293R3-4 (antibody, human IgG1, V domains shown, also called #hu 293R3-4; CHI3L1 293R3-4) VH: EVQLVQSGAEVKKPGATVKISCKVSGYSFTDYYIHWVQQAPGKGLEWMGFVDPENGETIYAEKFQGRVTITADTSTDTAYMELSSLRSDDTAVYYCATDRDYDDSSGNAFDIWGQGTMVTVSS VL: SYELTQPPSVSVSTGQTATITCSGDILGDEYAFWYQQKAGQSPVLVIYLDTRRPSGIPERFSGSNSGDTATLTISETQPVDEAVYFCQGWDSSTALYVFGTGTKVTVLG : 8.40

Values from patent US20240400717A1
